Cited source for all entries: PubChem BioAssay (NCI)

- System: SN12C renal
- assay.summary: NCI tumour cell line growth inhibition, 48 h
property.measured: TGI

Consider the compound "Cc1cc2c(cc1C)[n+](=O)c(C(=O)N1CCN(c3ccc([N+](=O)[O-])cc3)CC1)c(C)n2[O-]" and give its measured TGI.
> 100 µM

Consider the compound CC(C)(C)OC(=O)NC(Cc1cnc[nH]1)C(=O)N1CCCC1C(N)=O (configuration not stated) and give its measured TGI.
> 100 µM

Consider the compound "c1ccc2c3c([nH]c2c1)C1c2[nH]c4ccccc4c2CCN1CC3" and give its measured TGI.
32.6 µM

Consider the compound CN(c1ccccc1)C1C(=O)N(c2ccccc2)C1/C=C/c1ccccc1 (configuration not stated) and give its measured TGI.
> 100 µM

Consider the compound "O=C(Nc1ccccc1C(=O)O)/C(=C/c1ccccc1)NC(=O)c1ccccc1" and give its measured TGI.
> 100 µM

Consider the compound "COc1ccc(-c2cc(/C=C3\C(=O)Nc4ccc(OC)cc43)[nH]n2)cc1" and give its measured TGI.
> 100 µM

Consider the compound "COc1cc([C@@H]2c3cc4c(cc3[C@@H](O[C@@H]3O[C@@H]5CO[C@@H](c6cccs6)O[C@H]5[C@H](O)[C@H]3O)[C@H]3COC(=O)[C@H]23)OCO4)cc(OC)c1O" and give its measured TGI.
2.73 µM
